experiment: Cy5 fluorescence interference with SSB-bound oligo, artefact control for HCV NS3 helicase inhibitor project, biochemical, NIH Clinical Collection, E. coli SSB (AID 743268)
Activity calls are given as the source filed them. The rule behind the calls is not given here.
Assign a class; possible classes are T = active, F = inactive

Cc1occc(=O)c1O | F

q: Hello, I am checking results. What call was entered for CC(C)NCC(O)COc1cccc2ccccc12 (stereo unspecified) ?
a: F

q: Kindly provide the recorded test outcome for the following compound: `O=C(O[C@@H]1Cc2c(O)cc(O)cc2O[C@@H]1c1cc(O)c(O)c(O)c1)c1cc(O)c(O)c(O)c1`
a: T

q: Called result for CC(C)(C)NCC(O)c1ccc(O)c(CO)c1 (stereo unspecified)
a: F

q: Assay outcome for `CN(C)c1nc(N(C)C)nc(N(C)C)n1` : what was it?
a: F

q: Tell me the recorded outcome of this test for `CCn1cc(C(=O)O)c(=O)c2ccc(C)nc21` .
a: F

q: So what was the verdict on `C[C@H]1COc2c(N3CCN(C)CC3)c(F)cc3c(=O)c(C(=O)O)cn1c23` in this test?
a: F

* * *

Exercise: for every item that follows, state its recorded period change.
test: circadian clock period modulators, cell-based, LOPAC library, luminescence reporter (AID 2774); conditions: circadian reporter cells, at 7 µM, actives lie on both sides;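 note: values are relative to mean of DMSO wells on each plate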
Calls of active or inactive are those of the source. How the calls were made is not given here.

Consider the reported period change for these molecules:
COc1cccc(OC)c1OCCNCC1COc2ccccc2O1 (centres undefined) | 0.335 h (inactive)
NCCCCC(=O)O | 0.155 h (inactive)

List reported period change for each of these molecules:
1. CCCC(CCC)C(=O)O
2. NCCSSCCN
3. O=C(CCCN1CCC(O)(c2cccc(C(F)(F)F)c2)CC1)c1ccc(F)cc1
4. FC(F)(F)c1ccccc1-n1ccnc1
5. CC1=C(/C=C/C(C)=C/C=C/C(C)=C/C(=O)Nc2ccc(O)cc2)C(C)(C)CCC1
6. C[N+](C)(C)CCOC(=O)CCC(=O)OCC[N+](C)(C)C

a:
0.1 h (inactive)
-0.055 h (inactive)
0.235 h (inactive)
-0.115 h (inactive)
-0.145 h (inactive)
0.025 h (inactive)

# per-item lookup of period change; items listed below
1. COC(=O)[C@@H](N)Cc1ccc(O)c(O)c1
2. Cc1ccc(/C(=C\CN2CCCC2)c2ccccn2)cc1
3. O=C(O)CCc1nc(-c2ccccc2)c(-c2ccccc2)o1
4. CN1CCN(C2=Nc3cc(Cl)ccc3Nc3ccccc32)CC1
5. C[C@]12CC[C@@H]3c4ccc(O)cc4CC[C@H]3[C@@H]1CC[C@@H]2O
6. CCCn1cnc2c1c(=O)n(CCCCC(C)=O)c(=O)n2C
7. CC(C)NCC(O)COc1cccc2[nH]ccc12 (centres undefined)

a:
1: 0.105 h (inactive); 2: 0.045 h (inactive); 3: 0.145 h (inactive); 4: 0.13 h (inactive); 5: 0.19 h (inactive); 6: 0.185 h (inactive); 7: 0.015 h (inactive)

* * *

assay: ICB984 medulloblastoma cell growth inhibition, synergistic combos for chromothripsis tumors, cisplatin or BGB combos (AID 1671451); conditions: ICB984 medulloblastoma cells, drug combinations, cisplatin combo, at 0.05 µM, stronger effect = higher value;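 note: cells exposed for 96 hours before readout; 0% = vehicle DMSO and 100% = killing by high DMSO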
What inhibition was measured for each of the following?
Numbers only, in %.

Solved entries:
CN1C[C@@H]2C[C@H]1CN2c1cc2c(cc1F)c(=O)c(C(=O)O)cn2C1CC1 | -23.9
CCOC(=O)Nc1ccc(NCc2ccc(F)cc2)nc1N | -45.5

Shifting focus to the compound that follows.
q: Write down inhibition measured for item CN(N=O)C(=O)NC1C(O)OC(CO)C(O)C1O (stereo not drawn)
a: -31

* * *

test system: R275C/beta2Delta; test: modulators of BK channel variants, profiling panel, selectivity assay, cell-based, U2OS BacMam, thallium flux, beta subunits (AID 1259406); conditions: at 30 µM;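 note: initial slope of Thallos dye fluorescence rise after thallium is added; log ratio against the mean of 0.3% DMSO vehicle wells on the same plate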
Doc: threshold 0.02 (exclusive). Items with log fold change Tl+ flux beneath it return True; others return False.

COc1ccc(-c2oc3c(CC=C(C)C)c(O[C@@H]4O[C@H](CO)[C@@H](O)[C@H](O)[C@H]4O)cc(O)c3c(=O)c2O[C@@H]2O[C@@H](C)[C@H](O)[C@@H](O)[C@H]2O)cc1 | True
CNCCC(Oc1ccc(C(F)(F)F)cc1)c1ccccc1 (configuration not stated) | False
CN(C)C(=O)C(CCN1CCC(O)(c2ccc(Cl)cc2)CC1)(c1ccccc1)c1ccccc1 | True
CC(C(=O)O)c1ccc(-c2ccccc2)c(F)c1 (configuration not stated) | False
COc1ccc(-c2cc(=O)c3c(OC)c(OC)c(OC)c(OC)c3o2)cc1OC | True

Please look at the following compound next.
q: Does the reported log fold change Tl+ flux of `CC(C)OC(=O)C(C)(C)Oc1ccc(C(=O)c2ccc(Cl)cc2)cc1` stay below 0.02?
a: True

* * *

experiment: HDN33 neuroblastoma growth inhibition, cell-based, chromothripsis tumors, cisplatin or BGB combos (AID 1671450); details: HDN33 neuroblastoma cells, measured here: with BGB IC20 combination, at 0.5 µM, stronger effect = higher value;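 note: cells exposed to compound for four days; 0% = vehicle DMSO and 100% = cell killing by high DMSO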
Measurement Type: inhibition (%)
One number for each entry, in %.

CCn1nc(C(=O)O)c(=O)c2cc3c(cc21)OCO3 | -15.2
O=c1c(O)c(-c2ccc(O)c(O)c2)oc2cc(O)ccc12 | -4.05
CN1CCN(c2c(F)cc3c(=O)c(C(=O)O)cn4c3c2OCN4C)CC1 | 5.2
N=C(N=C(N)N)N1CCOCC1 | -2.61
CC1(C(=O)O)CCC2(C)CCC3(C)C(=CC(=O)C4C5(C)CCC(OC(=O)CCC(=O)O)C(C)(C)C5CCC43C)C2C1 (configuration not stated) | -1.57
Cc1ccc2nc(N)[nH]c(=O)c2c1Sc1ccncc1 | -32.4

Please turn your attention to the following entry.
q: Could you please provide reported inhibition for `CCOC(=O)Nc1ccc(NCc2ccc(F)cc2)nc1N` ? Thanks!
a: -18.2

* * *

assay: SU-DIPG-VI glioma cell viability, MIPE4.0 library, CellTiter-Glo luminescence, qHTS (AID 1347066); details: CellTiter-Glo ATP luminescence;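 note: cells exposed to compound for 48 hours before readout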
Results filed as inconclusive are left out. The source made the active and inactive calls. The limit is not given here; nearly all actives have AC50 up to about 30 µM.
Entry note: the call must match one of active, inactive

C[C@H](CCC(=O)O)[C@H]1CC[C@H]2[C@@H]3[C@H](O)C[C@@H]4C[C@H](O)CC[C@]4(C)[C@H]3CC[C@]12C | inactive
C[C@H]1COc2c(N3CCN(C)CC3)c(F)cc3c(=O)c(C(=O)O)cn1c23 | inactive
Cc1ccc(-n2nc(C(C)(C)C)cc2NC(=O)Nc2ccc(OCCN3CCOCC3)c3ccccc23)cc1 | inactive
C[C@H]1C[C@H]2[C@@H]3CCC4=CC(=O)C=C[C@]4(C)[C@@]3(F)[C@@H](O)C[C@]2(C)[C@@]1(O)C(=O)CO | inactive
NS(=O)(=O)c1cc(Cl)c(Cl)c(S(N)(=O)=O)c1 | inactive

q: Per the assay record, what outcome was assigned to `COc1cc2ncnc(Nc3ccc(F)c(Cl)c3)c2cc1OCCCN1CCOCC1` ?
a: active

q: Short answer needed: outcome of this test for `O=C(/C=C/C=C/c1ccc2c(c1)OCO2)N1CCCCC1` ?
a: inactive

q: Called result for `Cc1cc(=O)c2c(O)c3c(O)cc(=O)c4c3c3c(cc(O)c1c23)C(C)(C)C=4O`
a: active

* * *

assay: stimulators of insulin release from INS-1E, primary screen, cell-based, 5 mM glucose, NPC library (AID 1117329); conditions: rat INS-1E insulin secretion, at 10 µM, stronger effect = higher value
Measurement Type: insulin secretion stimulation (%)
Numbers only, in %.

Here are 5 compounds. What values of insulin secretion stimulation were reported for them?
1. S=C=Nc1ccc(N=C=S)cc1
2. COc1cc(C(=O)N2CCOCC2)cc(OC)c1OC
3. CN(C/C=C/c1ccccc1)Cc1cccc2ccccc12
4. O=C(CCCN1CCC(O)(c2cccc(C(F)(F)F)c2)CC1)c1ccc(F)cc1
5. NS(=O)(=O)c1ccc(C(=O)O)cc1

a:
3.2
-1.8
14.3
-0.35
-0.4

* * *

Assignment: determine reported inhibition for the given molecules.
molecular target: 6-phosphogluconate dehydrogenase, decarboxylating (Homo sapiens); experiment: 6PGD enzyme inhibitors, primary screen, biochemical, human, recombinant enzyme, NADPH absorbance (AID 1159550); settings: recombinant 6PGD, NADPH absorbance 341 nm; at 10 µM; stronger effect = higher value
One number for each entry, in %.

COc1c(O)cc2c(c1O)[C@@H]1O[C@H](CO)[C@@H](O)[C@H](O)[C@H]1OC2=O | 2.56
COc1ccc2cc([C@H](C)C(=O)O)ccc2c1 | -2.26

Okay, next one:
q: Identify the reported inhibition for the following entry. NC(=O)c1cc[n+](CC2=C(C(=O)O)N3C(=O)[C@H](NC(=O)C(c4ccccc4)S(=O)(=O)[O-])[C@@H]3SC2)cc1 (stereo partly drawn)
a: -12
